# Test system: ASH-3 (Thyroid Gland Carcinoma)
# experiment_description: combination Emax (second highest fraction inhibited in the dose matrix, 72 h); higher = more inhibition; extreme values may be limits of the assay
quantity_name: combination Emax
Field format: numeric only.

molecule	combination Emax
C[C@@H]1COCCN1c1cc(C2([S@](C)(=N)=O)CC2)nc(-c2ccnc3[nH]ccc23)n1 [AZD6738] + O=C(c1cc(Cc2n[nH]c(=O)c3ccccc23)ccc1F)N1CCN(C(=O)C2CC2)CC1 [Olaparib] (first compound max 10 µM, 7x7, partner max 10 µM)	0.652
COc1nnc2ccc(N3CCC(c4ccc(OCCN5CCN(C)C(=O)[C@H]5C)cc4)CC3)nn12 [AZD5153] + CCN(CCO)CCCOc1ccc2c(Nc3cc(CC(=O)Nc4cccc(F)c4)[nH]n3)ncnc2c1 [AZD2811] (first compound max 1 µM, 7x7, partner max 1 µM)	0.78
CN(CCO)CC[C@H](CSc1ccccc1)Nc1ccc(S(=O)(=O)NC(=O)c2ccc(N3CCC([C@@H](O)c4ccccc4-c4ccc(Cl)cc4)CC3)cc2)cc1S(=O)(=O)C(F)(F)F [AZD4320] + Cn1cnc2c(F)c(Nc3ccc(Br)cc3Cl)c(C(=O)NOCCO)cc21 [Selumetinib] (first compound max 1 µM, 7x7, partner max 3 µM)	0.728

Notebook: Cc1cc2ncnn2cc1Nc1ncc2c(n1)n(C1CCOCC1)c(=O)n2C [AZD7648] + C=CCn1c(=O)c2cnc(Nc3ccc(N4CCN(C)CC4)cc3)nc2n1-c1cccc(C(C)(C)O)n1 [AZD1775] (first compound max 10 µM, partner max 1 µM) , combination Emax read as 0.324

###

# System: NH-12 (Neuroblastoma)
# experiment_description: Bliss excess, mean over the matrix (fraction); higher = more synergy
Each entry below carries its reported Bliss excess.
Field format: numeric only.

compound	Bliss excess
NC1(C(=O)N[C@@H](CCO)c2ccc(Cl)cc2)CCN(c2ncnc3[nH]ccc23)CC1 [Capivasertib] + Cn1cnc2c(F)c(Nc3ccc(Br)cc3Cl)c(C(=O)NOCCO)cc21 [Selumetinib] (first compound max 10 µM, 7x7, partner max 10 µM)	0.0644
NC1(C(=O)N[C@@H](CCO)c2ccc(Cl)cc2)CCN(c2ncnc3[nH]ccc23)CC1 [Capivasertib] + CC(C)n1c(=O)n(C)c2cnc3cc(F)c(-c4ccc(OCCCN5CCCCC5)nc4)cc3c21 [AZD1390] (first compound max 10 µM, 7x7, partner max 0.3 µM)	-0.134
COc1nnc2ccc(N3CCC(c4ccc(OCCN5CCN(C)C(=O)[C@H]5C)cc4)CC3)nn12 [AZD5153] + CC1(C)CCC(CN2CCN(c3ccc(C(=O)NS(=O)(=O)c4ccc(NCC5CCOCC5)c([N+](=O)[O-])c4)c(Oc4cnc5[nH]ccc5c4)c3)CC2)=C(c2ccc(Cl)cc2)C1 [Venetoclax] (first compound max 1 µM, 7x7, partner max 1 µM)	-0.0333

Here's the next entry for you.
Notebook: C=CCn1c(=O)c2cnc(Nc3ccc(N4CCN(C)CC4)cc3)nc2n1-c1cccc(C(C)(C)O)n1 [AZD1775] + O=C(c1cc(Cc2n[nH]c(=O)c3ccccc23)ccc1F)N1CCN(C(=O)C2CC2)CC1 [Olaparib] (first compound max 1 µM, partner max 10 µM) , Bliss excess read as -0.0167

###

# Tested on: A704 (Kidney Carcinoma)
# experiment_description: combination Emax (second highest fraction inhibited in the dose matrix, 72 h); higher = more inhibition; extreme values may be limits of the assay
quantity_name: combination Emax
Field format: numeric only.

molecule	quantity_name	reading
COc1cccc(OCCCN)c1-c1cc(Nc2cnc(C#N)cn2)n[nH]1 [Prexasertib] + O=C(c1cc(Cc2n[nH]c(=O)c3ccccc23)ccc1F)N1CCN(C(=O)C2CC2)CC1 [Olaparib] (first compound max 1 µM, 7x7, partner max 10 µM)	combination Emax	0.421

Notebook: NC1(C(=O)N[C@@H](CCO)c2ccc(Cl)cc2)CCN(c2ncnc3[nH]ccc23)CC1 [Capivasertib] + CC(=O)c1c(C)c2cnc(Nc3ccc(N4CCNCC4)cn3)nc2n(C2CCCC2)c1=O [Palbociclib] (first compound max 10 µM, 7x7, partner max 10 µM) , combination Emax read as 0.665

###

# System: LOU-NH91 (Squamous Cell Lung Carcinoma)
# experiment_description: Bliss excess, mean over the matrix (fraction); higher = more synergy
Each entry below carries its reported Bliss excess.

Some compounds with known Bliss excess results, for comparison:
compound	Bliss excess
COc1nnc2ccc(N3CCC(c4ccc(OCCN5CCN(C)C(=O)[C@H]5C)cc4)CC3)nn12 [AZD5153] + C[C@@H]1COCCN1C2=NC(=NC(=C2)C3(CC3)[S@](=N)(=O)C)C4=C5C=CNC5=NC=C4 [AZD6738] (first compound max 1 µM, 7x7, partner max 10 µM)	-0.0012
C[C@@H]1COCCN1c1cc(C2([S@](C)(=N)=O)CC2)nc(-c2ccnc3[nH]ccc23)n1 [AZD6738] + O=C(c1cc(Cc2n[nH]c(=O)c3ccccc23)ccc1F)N1CCN(C(=O)C2CC2)CC1 [Olaparib] (first compound max 10 µM, 7x7, partner max 10 µM)	0.0035

Here's the next entry for you.
Notebook: CN(CCO)CC[C@H](CSc1ccccc1)Nc1ccc(S(=O)(=O)NC(=O)c2ccc(N3CCC([C@@H](O)c4ccccc4-c4ccc(Cl)cc4)CC3)cc2)cc1S(=O)(=O)C(F)(F)F [AZD4320] + CCN(CCO)CCCOc1ccc2c(Nc3cc(CC(=O)Nc4cccc(F)c4)[nH]n3)ncnc2c1 [AZD2811] (first compound max 1 µM, 7x7, partner max 1 µM) , Bliss excess read as 0.0995

###

# Tested on: NCI-H513 (Other Solid Carcinomas)
# experiment_description: Bliss excess, mean over the matrix (fraction); higher = more synergy
Each entry below carries its reported Bliss excess.
Field format: numeric only.

Some compounds with known Bliss excess results, for comparison:
compound	target_of_assay	quantity_name	reading
Cc1c2c(nn1C)CSCc1cc(n(C)n1)CSc1cc(c3ccccc3c1)OCCCc1c(C(=O)O)n(C)c3c-2c(Cl)ccc13 [AZD5991] + Cc1cc2ncnn2cc1Nc1ncc2c(n1)n(C1CCOCC1)c(=O)n2C [AZD7648] (first compound max 1 µM, 7x7, partner max 10 µM)	NCI-H513 (Other Solid Carcinomas)	Bliss excess	-0.0127
NC1(C(=O)N[C@@H](CCO)c2ccc(Cl)cc2)CCN(c2ncnc3[nH]ccc23)CC1 [Capivasertib] + CCN(CCO)CCCOc1ccc2c(Nc3cc(CC(=O)Nc4cccc(F)c4)[nH]n3)ncnc2c1 [AZD2811] (first compound max 10 µM, 7x7, partner max 1 µM)	NCI-H513 (Other Solid Carcinomas)	Bliss excess	-0.0479
Cc1cc2ncnn2cc1Nc1ncc2c(n1)n(C1CCOCC1)c(=O)n2C [AZD7648] + C[C@@H]1COCCN1C2=NC(=NC(=C2)C3(CC3)[S@](=N)(=O)C)C4=C5C=CNC5=NC=C4 [AZD6738] (first compound max 10 µM, 7x7, partner max 10 µM)	NCI-H513 (Other Solid Carcinomas)	Bliss excess	-0.0383

Here's the next entry for you.
Notebook: Cc1c2c(nn1C)CSCc1cc(n(C)n1)CSc1cc(c3ccccc3c1)OCCCc1c(C(=O)O)n(C)c3c-2c(Cl)ccc13 [AZD5991] + C1CN(CCC1(C(=O)N[C@@H](CCO)C2=CC=C(C=C2)Cl)N)C3=NC=NC4=C3C=CN4 [Capivasertib] (first compound max 1 µM, 7x7, partner max 3 µM) , Bliss excess read as -0.0056

###

Each entry below carries its reported combination Emax.
# Tested on: KINGS-1 (Low Grade Glioma)
# experiment_description: combination Emax (second highest fraction inhibited in the dose matrix, 72 h); higher = more inhibition; extreme values may be limits of the assay
Field format: numeric only.

compound	reading
C[C@@H](Nc1cc(F)cc(F)c1)c1cc(C(=O)N(C)C)cc2c(=O)cc(N3CCOCC3)oc12 [AZD8186] + C1CN(CCC1(C(=O)N[C@@H](CCO)C2=CC=C(C=C2)Cl)N)C3=NC=NC4=C3C=CN4 [AZD5363] (first compound max 10 µM, 7x7, partner max 10 µM)	0.422

Here's the next entry for you.
Notebook: CN(CCO)CC[C@H](CSc1ccccc1)Nc1ccc(S(=O)(=O)NC(=O)c2ccc(N3CCC([C@@H](O)c4ccccc4-c4ccc(Cl)cc4)CC3)cc2)cc1S(=O)(=O)C(F)(F)F [AZD4320] + Nc1ccn([C@@H]2O[C@H](CO)[C@@H](O)C2(F)F)c(=O)n1 [Gemcitabine] (first compound max 1 µM, 7x7, partner max 0.3 µM) , combination Emax read as 0.502

###

# Test system: NH-12 (Neuroblastoma)
# experiment_description: combination Emax (second highest fraction inhibited in the dose matrix, 72 h); higher = more inhibition; extreme values may be limits of the assay
Each entry below carries its reported combination Emax.

molecule	reading
Cn1cnc2c(F)c(Nc3ccc(Br)cc3Cl)c(C(=O)NOCCO)cc21 [Selumetinib] + CCN(CCO)CCCOc1ccc2c(Nc3cc(CC(=O)Nc4cccc(F)c4)[nH]n3)ncnc2c1 [AZD2811] (first compound max 10 µM, 7x7, partner max 1 µM)	0.729

Here's the next entry for you.
Notebook: C=CCn1c(=O)c2cnc(Nc3ccc(N4CCN(C)CC4)cc3)nc2n1-c1cccc(C(C)(C)O)n1 [AZD1775] + C[C@@H]1COCCN1C2=NC(=NC(=C2)C3(CC3)[S@](=N)(=O)C)C4=C5C=CNC5=NC=C4 [AZD6738] (first compound max 1 µM, partner max 10 µM) , combination Emax read as 0.937
